All values here come from patent EP4656642A1.

Recorded Degradation rate (%) of ERα in MCF-7 cells for the following compounds
Biological target: ERα (Homo sapiens)
Sequence (P03372 1-595): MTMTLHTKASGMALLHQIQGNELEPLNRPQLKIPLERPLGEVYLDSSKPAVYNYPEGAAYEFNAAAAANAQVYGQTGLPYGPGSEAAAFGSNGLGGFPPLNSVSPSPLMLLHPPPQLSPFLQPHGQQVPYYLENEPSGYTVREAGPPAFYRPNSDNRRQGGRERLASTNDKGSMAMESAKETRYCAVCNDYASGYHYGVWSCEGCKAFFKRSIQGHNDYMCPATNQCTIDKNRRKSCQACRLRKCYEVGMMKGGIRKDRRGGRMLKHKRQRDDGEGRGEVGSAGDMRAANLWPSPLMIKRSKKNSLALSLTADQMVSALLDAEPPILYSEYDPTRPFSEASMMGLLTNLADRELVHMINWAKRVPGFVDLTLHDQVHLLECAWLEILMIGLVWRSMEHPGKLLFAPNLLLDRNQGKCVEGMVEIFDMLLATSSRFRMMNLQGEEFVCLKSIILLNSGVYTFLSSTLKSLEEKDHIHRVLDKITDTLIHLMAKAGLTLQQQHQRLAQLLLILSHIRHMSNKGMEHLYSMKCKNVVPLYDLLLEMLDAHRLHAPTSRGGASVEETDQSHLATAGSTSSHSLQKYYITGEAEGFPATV
Experiment: Degradation of ERα in MCF-7 cells (immunoblotting, 4 h)
Assay type: cell-based
Conditions: 10nM compound
recorded.endpoint: Degradation rate (%) of ERα in MCF-7 cells

| compound | result.value |
| --- | --- |
| O=C1CCC(N2Cc3cc4c(cc3C2=O)OC2(CC4)CCN(C3CCC4(CC3)CN(c3ccc(C5c6ccc(O)cc6CCC5c5ccccc5)cc3)C4)CC2)C(=O)N1 (stereo not drawn) | 14 |
| O=C1CCC(N2Cc3c(ccc4c3OCC43CCN(C4C5CCC4CN(C(=O)C4CCN(c6ccc([C@@H]7c8ccc(O)cc8CC[C@@H]7c7ccccc7)cc6)CC4)C5)CC3)C2=O)C(=O)N1 (stereo partly drawn) | 60 |
| O=C1CCC(N2Cc3cc4c(cc3C2=O)OC2(CC4)CN(C(=O)C3CCN(c4ccc([C@@H]5c6ccc(O)cc6CC[C@@H]5c5ccccc5)cc4)CC3)C2)C(=O)N1 (stereo partly drawn) | 15 |
| O=C1CCC(N2Cc3c(ccc4c3OCC43CCN(C4CCN(C5CN(c6ccc([C@@H]7c8ccc(O)cc8CC[C@@H]7c7ccccc7)cc6)C5)CC4)CC3)C2=O)C(=O)N1 (stereo partly drawn) | -19 |
| O=C1CCC(N2Cc3c(ccc4c3OCC43CCN(C(=O)C4CN(CC5CCN(c6ccc([C@@H]7c8ccc(O)cc8CC[C@@H]7c7ccccc7)cc6)CC5)C4)CC3)C2=O)C(=O)N1 (stereo partly drawn) [K33] | 62 |
| O=C1CCC(N2C(=O)c3cc4c(cc3C2=O)OC2(CC4)CN(CC3CC4(CCN(c5ccc([C@@H]6c7ccc(O)cc7CC[C@@H]6c6ccccc6)cc5)CC4)C3)C2)C(=O)N1 (stereo partly drawn) | -16 |
| O=C1CCC(N2Cc3cc4c(cc3C2=O)OC2(CC4)CN(C3CCC4(CC3)CCN(C3CCN(c5ccc([C@@H]6c7ccc(O)cc7CC[C@@H]6c6ccccc6)cc5)CC3)CC4)C2)C(=O)N1 (stereo partly drawn) | 14 |
| O=C1CCC(N2C(=O)c3cc4c(cc3C2=O)OC2(CC4)CCN(c3ccc(C4c5ccc(O)cc5CCC4c4ccccc4)cc3)CC2)C(=O)N1 (stereo not drawn) | -29 |
| O=C1CCC(N2Cc3c(ccc4c3OCC43CCN(C(=O)C45CCC(CN6CCN(c7ccc([C@@H]8c9ccc(O)cc9CC[C@@H]8c8ccccc8)cc7)CC6)(CC4)CC5)CC3)C2=O)C(=O)N1 (stereo partly drawn) | 43 |
| O=C1CCC(N2Cc3cc4c(cc3C2=O)OC2(CC4)CN(C(=O)[C@H]3CC[C@H](CN4CCN(c5ccc([C@@H]6c7ccc(O)cc7CC[C@@H]6c6ccccc6)cc5)CC4)CC3)C2)C(=O)N1 (stereo partly drawn) | 40 |
| O=C1CCC(N2C(=O)c3cc4c(cc3C2=O)C2(CCN(C3CCC5(CC3)CCN(c3ccc(C6c7ccc(O)cc7CCC6c6ccccc6)cc3)CC5)CC2)CO4)C(=O)N1 (stereo not drawn) | 20 |
| O=C1CCC(N2Cc3cc4c(cc3C2=O)CCC2(CCN(CC3CCN(c5ccc(C6c7ccc(O)cc7CCC6c6ccccc6)cc5)C3)CC2)O4)C(=O)N1 (stereo not drawn) | -34 |
| CCN(C1CCN(c2ccc([C@@H]3c4ccc(O)cc4CC[C@@H]3c3ccccc3)cc2)CC1)[C@H]1CC[C@@H](C(=O)N2CCC3(CC2)COc2c3ccc3c2CN(C2CCC(=O)NC2=O)C3=O)CC1 (stereo partly drawn) | 62 |
| O=C1CCC(N2Cc3ccc4c(c3C2=O)OCC42CCN(C3CCC4(CC3)CN(c3ccc([C@@H]5c6ccc(O)cc6CC[C@@H]5c5ccccc5)cc3)C4)CC2)C(=O)N1 (stereo partly drawn) | 6 |
| O=C1CCC(N2C(=O)c3cc4c(cc3C2=O)OC2(CC4)CCN(CC3CCN(c4ccc(C5c6ccc(O)cc6CCC5c5ccccc5)cc4)C3)CC2)C(=O)N1 (stereo not drawn) | -24 |
| O=C1CCC(N2Cc3c(ccc4c3OCC43CCN(C(=O)C4CCN(C5CCN(c6ccc([C@@H]7c8ccc(O)cc8CC[C@@H]7c7ccccc7)cc6)CC5)CC4)CC3)C2=O)C(=O)N1 (stereo partly drawn) [K7] | 64 |
| O=C1CCC(N2Cc3ccc4c(c3C2=O)CC2(CCN(C3CCC5(CC3)CN(c3ccc([C@@H]6c7ccc(O)cc7CC[C@@H]6c6ccccc6)cc3)C5)CC2)CO4)C(=O)N1 (stereo partly drawn) | -6 |
| COC(=O)[C@@H]1C[C@H](N2CCC3(CC2)COc2c3ccc3c2CN(C2CCC(=O)NC2=O)C3=O)CCN1C1CCN(c2ccc([C@@H]3c4ccc(O)cc4CC[C@@H]3c3ccccc3)cc2)CC1 (stereo partly drawn) | 58 |
| O=C1CCC(N2Cc3c(ccc4c3OCC43CCN(C4CC5CCCC(C4)N5C(=O)C4CCN(c5ccc([C@@H]6c7ccc(O)cc7CC[C@@H]6c6ccccc6)cc5)CC4)CC3)C2=O)C(=O)N1 (stereo partly drawn) [D1] | 68 |
| O=C1CCC(N2Cc3cc4c(cc3C2=O)OC2(CC4)CN(C3CCC(N4CCN(c5ccc([C@@H]6c7ccc(O)cc7CC[C@@H]6c6ccccc6)cc5)CC4)CC3)C2)C(=O)N1 (stereo partly drawn) | 16 |
| O=C1CCC(N2Cc3c(ccc4c3OCC43CCN(C(=O)C4CCC(CN5CCN(c6ccc(C7c8ccc(O)cc8CCC7c7ccccc7)cc6)CC5)CC4)CC3)C2=O)C(=O)N1 (stereo not drawn) [G16] | 70 |
